Listing of recorded pIC50 by entry.
TARGET_OR_SYSTEM: Potassium channel subfamily T member 1 (Homo sapiens, UniProt Q5JUK3)
Sequence (Q5JUK3 whole entry, the tested form may be a part): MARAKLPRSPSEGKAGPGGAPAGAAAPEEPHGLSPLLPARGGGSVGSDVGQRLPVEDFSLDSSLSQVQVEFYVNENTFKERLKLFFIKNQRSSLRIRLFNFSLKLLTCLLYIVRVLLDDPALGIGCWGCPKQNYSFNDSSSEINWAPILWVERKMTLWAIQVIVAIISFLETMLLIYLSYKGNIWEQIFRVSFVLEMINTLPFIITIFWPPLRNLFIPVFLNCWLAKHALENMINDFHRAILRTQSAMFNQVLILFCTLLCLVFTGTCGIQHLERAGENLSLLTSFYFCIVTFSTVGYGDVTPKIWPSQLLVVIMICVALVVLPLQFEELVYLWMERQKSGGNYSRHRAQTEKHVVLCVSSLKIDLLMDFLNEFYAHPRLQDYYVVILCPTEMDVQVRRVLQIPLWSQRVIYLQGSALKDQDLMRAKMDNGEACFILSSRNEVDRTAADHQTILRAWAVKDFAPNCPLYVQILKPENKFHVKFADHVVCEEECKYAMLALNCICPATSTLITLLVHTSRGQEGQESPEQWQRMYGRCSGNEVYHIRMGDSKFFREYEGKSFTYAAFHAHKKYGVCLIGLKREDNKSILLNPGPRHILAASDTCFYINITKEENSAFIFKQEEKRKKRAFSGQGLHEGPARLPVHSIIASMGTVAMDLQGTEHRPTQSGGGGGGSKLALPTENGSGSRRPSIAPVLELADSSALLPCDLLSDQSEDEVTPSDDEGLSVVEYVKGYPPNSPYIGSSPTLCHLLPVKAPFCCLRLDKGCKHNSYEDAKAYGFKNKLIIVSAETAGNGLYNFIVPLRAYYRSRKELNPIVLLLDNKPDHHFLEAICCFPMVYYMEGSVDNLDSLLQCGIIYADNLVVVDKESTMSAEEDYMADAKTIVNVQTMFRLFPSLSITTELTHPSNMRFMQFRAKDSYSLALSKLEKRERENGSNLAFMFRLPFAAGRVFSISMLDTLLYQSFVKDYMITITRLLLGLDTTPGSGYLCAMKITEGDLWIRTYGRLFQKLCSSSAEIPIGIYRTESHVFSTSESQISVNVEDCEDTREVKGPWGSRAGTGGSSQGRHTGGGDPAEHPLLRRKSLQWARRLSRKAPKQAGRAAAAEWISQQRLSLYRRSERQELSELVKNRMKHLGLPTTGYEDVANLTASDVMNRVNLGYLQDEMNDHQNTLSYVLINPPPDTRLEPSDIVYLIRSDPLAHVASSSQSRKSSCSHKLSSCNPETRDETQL
METHOD_SUMMARY: Inhibition of human KCNT1 (98 to 354 residues) expressed in CHO cells assessed as reduction in thallium fluorescent signal incubated for 15 mins followed by LOX addition measured after 15 mins by FluxOR green dye based fluorescence analysis
pIC50: −log10 of the molar value.
RECORDED_ENDPOINT: pIC50

• Oc1ccc2ccccc2c1CNCCc1c[nH]c2ccccc12 = 5.06
• CC(C)(C)CNC(=O)Nc1ccc2c(c1)CCN2Cc1ccc(F)cc1 = 5.26

###

METHOD_SUMMARY: Plasma protein binding in human at 10 uM incubated for 4 hrs by rapid equilibrium dialysis based LC-MS/MS analysis
Type: ADME, cell-free
SETTINGS: read-out: PPB
Listing of recorded fraction unbound at 4 h, 10 µM by entry.
RECORDED_ENDPOINT: fraction unbound at 4 h, 10 µM

* O=S(=O)(Nc1ccc2c(c1)CCN2Cc1ccc(C(F)(F)F)cc1C(F)(F)F)C1CCCCC1 | 0.01
* O=C(NCc1ccccc1)[C@H](Cc1c[nH]c2ccccc12)NCc1ccc(Oc2ccccc2)cc1 | 0.01
